src = patent US7026443

Could you please report measured relative binding ratio (IC50 of standard peptide / IC50 of test peptide) for the items listed next?
- systemName: HLA-A*1101 (human)
Answers are plain numbers.

Worked cases, answers included:
CATMCKHYR (modifications not checked) [HPV18 E1 412-420 peptide …]	0.011
ATMCRHYKR (modifications not checked) [HPV16 E1 406 …]	1.5

**Q:** Consider the binder shown here: ALLRYKCGK (modifications not checked) [HPV18 E1 284-292 peptide …] What is its recorded relative binding ratio (IC50 of standard peptide / IC50 of test peptide)?
**A:** 0.14
